Each recorded value in this set is attributed to a melting point compilation (Tetko et al.; mined from patent text by program, amines drawn as free bases though some values may be those of a salt).

quantity-kind: melting point

# count of solved cases: 7
CC(C)(O)CCOc1c(-c2ccc(S(C)(=O)=O)cc2)cnn(-c2ccc(F)c(F)c2)c1=O = 131 to 133 °C
CC#CCOc1ccc(S(=O)(=O)N(C)c2c(C(=O)OCC)cnc3c2c(C)nn3C)cc1 = 50 to 52 °C
CC(C)CC(CC(=O)NO)C(=O)N[C@H]1Cc2cn(c3ccccc23)CCCCCCCNC1=O (stereo partly drawn) = 197 to 201 °C
N#Cc1cc(C(=O)NNC(=O)c2occ(-c3ccc(Cl)cc3)c2-c2ccc(Cl)cc2)ccc1O = 190 to 191 °C
Cc1cc(CCCCCOc2ccc(-c3nc4ccccc4s3)cc2)on1 = 70.5 to 71.2 °C
CCNS(=O)(=O)CC(=O)C1=C(C)NC(C)=C(C(=O)OC(C)C)C1c1cccc([N+](=O)[O-])c1 (stereo not drawn) = 140 to 142 °C
CC(C(N)=O)c1ccc2c(c1)C(=O)Cc1c(Cl)cccc1S2 (stereo not drawn) = 195 to 196 °C

Give the reported value of melting point for this record: COc1cc(N)c(Cl)cc1C(=O)N[C@H]1CCN(CCCC(=O)c2cccnc2)C[C@H]1OC (relative stereo)
166 °C
